Overview of recorded protein stability index for various variants
B1: RSPH3 (parent)
chain: KAASLARNLAKRRRTYLGGAAGRS

Variants of: B1
method: protein stability index of a GFP-peptide fusion (GPS, HEK-293T) (PSI 1-6); higher = more stable;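 further: lentivirally expressed fusions sorted by FACS into six bins by GFP to DsRed ratio, PSI derived from sequencing read proportions per bin multiplied by bin number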
setupConditions: c terminus: a fixed tail appended

[
  {
    "variantLabel": "R14N",
    "protein stability index": 1.99
  },
  {
    "variantLabel": "A21I",
    "protein stability index": 1.91
  },
  {
    "variantLabel": "G19P",
    "protein stability index": 1.46
  },
  {
    "variantLabel": "L5Q",
    "protein stability index": 4.14
  },
  {
    "variantLabel": "S24F",
    "protein stability index": 1.94
  },
  {
    "variantLabel": "S24N",
    "protein stability index": 1.85
  },
  {
    "variantLabel": "R14F",
    "protein stability index": 1.02
  },
  {
    "variantLabel": "N8L",
    "protein stability index": 2.26
  },
  {
    "variantLabel": "S4N",
    "protein stability index": 3.2
  },
  {
    "variantLabel": "R13G",
    "protein stability index": 2.11
  },
  {
    "variantLabel": "R12F",
    "protein stability index": 1.68
  }
]
